From: the Immune Epitope Database (IEDB)

- measured-target: HLA-B*15:01
- assay-info: IEDB peptide-MHC binding, purified MHC/direct/fluorescence; filed as Kd, often an IC50 or EC50 that approximates it; bounds were set here for any values at or beyond the usual limits of such assays
- applied-conditions: source organism: Human immunodeficiency virus 1
reported-property: Kd (µM)
Answers are plain numbers, in µM.

Exam item: Which Kd value belongs to "TVLDVGDAY" ?
Marked response: 0.17

====

- measured-target: HLA-A*11:01
- assay-info: IEDB peptide-MHC binding, purified MHC/competitive/radioactivity; filed as Kd, often an IC50 or EC50 that approximates it; bounds were set here for any values at or beyond the usual limits of such assays
- applied-conditions: source organism: Dengue virus 4 Philippines/H241/1956
reported-property: Kd (µM)
Give bare numbers, in µM.

Record excerpt, results attached:
{"residue-sequence": "AANEMGLIEK", "Kd [µM]": 0.281}
{"residue-sequence": "RVSTPQGLVK", "Kd [µM]": 0.0542}

Now look at this entry.
Exam item: Requested field: Kd. Item: "TSEVHWNYK"
Marked response: 0.0849
